Recorded measurements of % DAMGO + BFNA, one per entry
- System: mu opiate receptor (MOR)
- PROCEDURE DETAILS: MOR agonist activity using [35S]GTPγS binding assay in striatal membranes
- Format: biochemical
- TEST SETTINGS: 1 μM compound + BFNA relative to DAMGO + BFNA
Could you give me the number in %? Just the number is fine.

The examples below pair each entry with its known result.
COc1ccc(OCC(O)CN2CCc3cc4c(c(OC)c3C2)OCO4)cc1 (stereo not shown) | 232.8
COc1ccc(OCC(O)CN2CCc3ccccc3C2)cc1 (stereo not shown) | 46.2
CC1CCC(C(C)C)C(OCC(O)CN2CCc3ccccc3C2)C1 (stereo not shown) | 22.6
CC1CN(CC(O)COc2ccccc2C(C)C)CC(C)O1 (stereo not shown) | 84.8
COc1ccc(OCC(O)CN2CCCc3ccccc32)cc1 (stereo not shown) | 98.3
CC1CN(CC(O)COc2cc(F)cc(F)c2)CC(C)O1 (stereo not shown) | 189.4

Item CC1CN(CC(O)COc2ccccc2)CC(C)O1 (stereo not shown) with mu opiate receptor (MOR) - % DAMGO + BFNA?
198.5

Form field: % DAMGO + BFNA recorded for CC1CCC(C(C)C)C(OCC(O)CN2CCN(C)CC2)C1 (stereo not shown) with mu opiate receptor (MOR) (enter value)
142.9

Form entry - test system: mu opiate receptor (MOR); read-out: % DAMGO + BFNA; molecule: CC1CCC(C(C)C)C(OCC(O)CN2CC(C)CC(C)C2)C1 (stereo not shown)
505.3

Give % DAMGO + BFNA (mu opiate receptor (MOR)) of the following molecule: CC1CN(CC(O)COc2cccc(F)c2)CC(C)O1 (stereo not shown)
144.9

What measured % DAMGO + BFNA is associated with COc1c2c(cc3c1OCO3)CCN(CC(O)COC1CC(C)CCC1C(C)C)C2 (stereo not shown) on mu opiate receptor (MOR)?
26.8

Record CC1CCC(C(C)C)C(OCC(O)CN2CCCCC2=O)C1 (stereo not shown) : what is its % DAMGO + BFNA with mu opiate receptor (MOR)?
85.5

Form: Entry = CC1CN(CC(O)COc2ccc(Br)c(F)c2)CC(C)O1 (stereo not shown) | System = mu opiate receptor (MOR) | % DAMGO + BFNA = ____
68.5

---

- System: mu opiate receptor (MOR)
- PROCEDURE DETAILS: MOR agonist activity using [35S]GTPγS binding assay in striatal membranes
- Format: biochemical
- TEST SETTINGS: 1 μM compound + BFNA relative to DAMGO + BFNA
- Protocol: To assess the mu opiate receptor (MOR) agonist activity of positive compounds from the FLNA screening, compounds were tested in a [^35S]GTPγS binding assay using striatal membranes. […] The immunocomplexes so formed were collected by incubation at 25° C. for 30 minutes with 40 μl of agarose-conjugated protein A/G beads and centrifugation at 5,000×g at 4° C. for 5 minutes. […] The radioactivity in the suspension was determined by liquid scintillation spectrometry.
Consider the following compounds and their measured % DAMGO + BFNA readings.
Lab book: enter the figure in %, no units written.

In the examples that follow, each entry is paired with its recorded % DAMGO + BFNA.
OC(COc1cccc(F)c1)CN1CCc2ccccc2C1 (stereo not shown) | 102.4
CC1CCCC(OCC(O)CN2CC(C)OC(C)C2)C1 (stereo not shown) | 34.9
COc1ccc(OCC(O)Cn2ccc3ccccc32)cc1 (stereo not shown) | 470.5
CC1CCC(C(C)C)C(OCC(O)CN2CCC2)C1 (stereo not shown) | 120.0
CC1CCC(C(C)C)C(OCC(O)CN2CCC(=O)CC2)C1 (stereo not shown) | 35.8
CC1CCC(C(C)C)C(OCC(O)CN2CCCN(C)CC2)C1 (stereo not shown) | 365.3

Fill blank: measured % DAMGO + BFNA of the compound CC1CCC(C(C)C)C(OCC(O)CN2CCN(CCN3CCCCC3)CC2)C1 (stereo not shown) is ____.
573.8

State the recorded % DAMGO + BFNA for this entry: OC(COc1ccc(Br)c(F)c1)CN1CCc2ccccc2C1 (stereo not shown)
112.3

Which value of % DAMGO + BFNA has been reported for CC1CCC(C(C)C)C(OCC(O)CN2CCSC2)C1 (stereo not shown) in the records?
24.5

Value lookup for % DAMGO + BFNA; key = CC1CN(CC(O)COc2ccc(Cl)cc2)CC(C)O1 (stereo not shown)
157.6
